Settings: mouse, in vivo, sc, 50 mg/kg
Value kind: hemoglobin

Lab book: hemoglobin of ISIS 416855: MOE gapmer, nucleobases 1275 to 1318 of SEQ ID NO: 1 (Table 8) (antisense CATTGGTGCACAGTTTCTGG; MOE gapmer, wing and gap sizes not given here) noted as 14 g/dL

Lookup result for ISIS 416861: MOE gapmer, nucleobases 1275 to 1318 of SEQ ID NO: 1 (Table 8) (antisense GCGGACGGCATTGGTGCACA; MOE gapmer, wing and gap sizes not given here) ; measured hemoglobin: 14 g/dL

response.value for ISIS 416866: MOE gapmer, nucleobases 1275 to 1318 of SEQ ID NO: 1 (Table 8) (antisense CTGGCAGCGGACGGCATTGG; MOE gapmer, wing and gap sizes not given here) (field: hemoglobin) = 15 g/dL

====

Assay: Tolerability in CD1 mice: liver function, ALT, AST, bilirubin, albumin (Example 33)
Settings: plasma, 50 mg/kg s.c. twice a week, 4 weeks
Value kind: Albumin
Respond using a number only.

// ISIS 416858: MOE gapmer, nucleobases 1275 to 1318 of SEQ ID NO: 1 (Table 8) (antisense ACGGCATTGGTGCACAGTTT; MOE gapmer, wing and gap sizes not given here) : Albumin value = 3.5

Lookup result for ISIS 417002: MOE gapmer, nucleobases 1275 to 1318 of SEQ ID NO: 1 (Table 8) (antisense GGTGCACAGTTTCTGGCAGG; MOE gapmer, wing and gap sizes not given here) ; measured Albumin: 3.4

The reported value for ISIS 416838: MOE gapmer, nucleobases 1018 to 1042 of SEQ ID NO: 1 (Table 6) (antisense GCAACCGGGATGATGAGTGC; MOE gapmer, wing and gap sizes not given here) in terms of Albumin is 3.8

# Albumin of ISIS 416864: MOE gapmer, nucleobases 1275 to 1318 of SEQ ID NO: 1 (Table 8) (antisense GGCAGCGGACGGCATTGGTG; MOE gapmer, wing and gap sizes not given here) = 3.6

Input ISIS 416850: MOE gapmer, nucleobases 1275 to 1318 of SEQ ID NO: 1 (Table 8) (antisense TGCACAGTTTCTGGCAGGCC; MOE gapmer, wing and gap sizes not given here) . Output Albumin: 3.5

====

Experiment: Hematology assays in cynomolgus monkeys (Example 45)
Assay type: in vivo
Conditions: day 50
Protocol: Groups, each consisting of two male and three female monkeys, were injected subcutaneously with ISIS 416838, ISIS 416850, ISIS 416858, ISIS 416864, or ISIS 417002 in escalating doses. […] Body weights were measured weekly. […]
Value kind: neutrophils

Noted for ISIS 416838: MOE gapmer, nucleobases 1018 to 1042 of SEQ ID NO: 1 (Table 6) (antisense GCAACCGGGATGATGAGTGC; MOE gapmer, wing and gap sizes not given here) : its neutrophils reads 31%

substance ISIS 416864: MOE gapmer, nucleobases 1275 to 1318 of SEQ ID NO: 1 (Table 8) (antisense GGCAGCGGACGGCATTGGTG; MOE gapmer, wing and gap sizes not given here) , neutrophils observed: 49%

neutrophils reported for this substance ISIS 416858: MOE gapmer, nucleobases 1275 to 1318 of SEQ ID NO: 1 (Table 8) (antisense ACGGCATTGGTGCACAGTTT; MOE gapmer, wing and gap sizes not given here) : 46%

The substance identified as ISIS 417002: MOE gapmer, nucleobases 1275 to 1318 of SEQ ID NO: 1 (Table 8) (antisense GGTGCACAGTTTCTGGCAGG; MOE gapmer, wing and gap sizes not given here) registered its neutrophils at 61%

Measured neutrophils, ISIS 416850: MOE gapmer, nucleobases 1275 to 1318 of SEQ ID NO: 1 (Table 8) (antisense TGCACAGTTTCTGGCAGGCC; MOE gapmer, wing and gap sizes not given here) : 45%

====

Exercise: for every item that follows, state its recorded Inhibition of Factor 11 protein relative to the PBS control (percentage reduction).
System: Factor 11 protein
Test: Factor 11 protein in monkey plasma by sandwich ELISA (Example 46)
Assay type: in vivo, cynomolgus monkeys
Settings: Day 31, plasma, 25 mg/kg subcutaneously
Strand notation (5' to 3'): a small letter for the sugar, then the base; units joined by * are phosphorothioate-linked, units joined directly phosphodiester-linked; [ ] holds rarer units or linkages, { } end groups; capitals alone tell only the bases. e = 2'-O-(2-methoxyethyl) (MOE); [5mC] = 5-methylcytosine; d = 2'-deoxy (DNA)
Only the number, expressed in %, is required.

Form field Inhibition of Factor 11 protein relative to the PBS control (percentage reduction), entry 449707 (antisense e[5mC]*eA*e[5mC]*eA*dG*dT*dT*dT*d[5mC]*dT*dG*dG*e[5mC]*eA*eG*eG) [compound 449707] : 29

The measured Inhibition of Factor 11 protein relative to the PBS control (percentage reduction) associated with 445531 (antisense eG*eG*e[5mC]*eA*eT*dT*dG*dG*dT*dG*d[5mC]*dA*d[5mC]*eA*eG*eT*eT*eT) [compound 445531] reads 27

# Inhibition of Factor 11 protein relative to the PBS control (percentage reduction) of 445522 (antisense eG*e[5mC]*eA*e[5mC]*eA*dG*dT*dT*dT*d[5mC]*dT*dG*dG*e[5mC]*eA*eG*eG*e[5mC]) [compound 445522] = 70

====

I'd be grateful if you could share measured platelet aggregation for these entries.
System: platelet aggregation
Test: Platelet aggregation assay, ADP and/or collagen (Example 45)
Assay type: in vivo, cynomolgus monkeys
Conditions: day 57 (with ADP); escalating dose regimen
# include the unit after the value

Just so you know, measured platelet aggregation for ISIS 416858: MOE gapmer, nucleobases 1275 to 1318 of SEQ ID NO: 1 (Table 8) (antisense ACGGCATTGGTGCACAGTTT; MOE gapmer, wing and gap sizes not given here) came out at 11 Ohms

Memo: ISIS 416850: MOE gapmer, nucleobases 1275 to 1318 of SEQ ID NO: 1 (Table 8) (antisense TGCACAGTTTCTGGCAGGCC; MOE gapmer, wing and gap sizes not given here) , reported platelet aggregation: 18 Ohms

Value of measured platelet aggregation for the entry ISIS 416864: MOE gapmer, nucleobases 1275 to 1318 of SEQ ID NO: 1 (Table 8) (antisense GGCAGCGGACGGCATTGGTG; MOE gapmer, wing and gap sizes not given here) : 18 Ohms

====

Assay: Hematology assays in cynomolgus monkeys (Example 45)
Assay type: in vivo
Conditions: day 78
Value kind: eosinophils (%)
Note: unit % is implicit; provide only the numeric part.

Record ISIS 416864: MOE gapmer, nucleobases 1275 to 1318 of SEQ ID NO: 1 (Table 8) (antisense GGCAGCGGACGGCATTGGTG; MOE gapmer, wing and gap sizes not given here) . Reported eosinophils: 1.2

Record summary for ISIS 417002: MOE gapmer, nucleobases 1275 to 1318 of SEQ ID NO: 1 (Table 8) (antisense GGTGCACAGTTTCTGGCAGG; MOE gapmer, wing and gap sizes not given here) : reported eosinophils = 0.1

Lab note: ISIS 416858: MOE gapmer, nucleobases 1275 to 1318 of SEQ ID NO: 1 (Table 8) (antisense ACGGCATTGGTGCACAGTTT; MOE gapmer, wing and gap sizes not given here) gave eosinophils of 0.5

According to the records, this substance ISIS 416850: MOE gapmer, nucleobases 1275 to 1318 of SEQ ID NO: 1 (Table 8) (antisense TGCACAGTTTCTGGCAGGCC; MOE gapmer, wing and gap sizes not given here) displays eosinophils of 1.0

substance ISIS 416838: MOE gapmer, nucleobases 1018 to 1042 of SEQ ID NO: 1 (Table 6) (antisense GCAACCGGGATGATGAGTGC; MOE gapmer, wing and gap sizes not given here) , eosinophils observed: 0.9

====

Assay: Hematology assays in cynomolgus monkeys (Example 46)
Type: in vivo
Conditions: Day 31
Strand notation (5' to 3'): a small letter for the sugar, then the base; units joined by * are phosphorothioate-linked, units joined directly phosphodiester-linked; [ ] holds rarer units or linkages, { } end groups; capitals alone tell only the bases. e = 2'-O-(2-methoxyethyl) (MOE); [5mC] = 5-methylcytosine; d = 2'-deoxy (DNA)
Value kind: MCHC

# MCHC of ISIS 449709: 3-8-3, 4-8-4, 2-10-2, 3-10-3 or 4-10-4 MOE microwalk gapmer (Table 46) (antisense eG*e[5mC]*eA*e[5mC]*dA*dG*dT*dT*dT*d[5mC]*dT*dG*dG*d[5mC]*eA*eG*eG*e[5mC]) = 30.7 g/dL

The substance ISIS 445531: 5-8-5 or 6-8-6 MOE microwalk gapmer (Table 44) (antisense eG*eG*e[5mC]*eA*eT*dT*dG*dG*dT*dG*d[5mC]*dA*d[5mC]*eA*eG*eT*eT*eT) showed MCHC equal to 29.7 g/dL

For record ISIS 449710: 3-8-3, 4-8-4, 2-10-2, 3-10-3 or 4-10-4 MOE microwalk gapmer (Table 46) (antisense e[5mC]*eA*e[5mC]*dA*dG*dT*dT*dT*d[5mC]*dT*dG*dG*d[5mC]*eA*eG*eG) the listed MCHC is 30.1 g/dL

Record summary for ISIS 449711: 3-8-3, 4-8-4, 2-10-2, 3-10-3 or 4-10-4 MOE microwalk gapmer (Table 46) (antisense eA*e[5mC]*dA*dG*dT*dT*dT*d[5mC]*dT*dG*dG*d[5mC]*eA*eG) : reported MCHC = 29.8 g/dL
